Hello, the source for this data is PubChem BioAssay (NCI), in case you need it.

System: T-47D breast
Experiment: NCI-60 one-dose screen, 48 h (100 = growth as untreated, 0 = no growth, -100 = all killed)
Settings: 10 µM unless noted
This is part of a sample that, as a whole, favours compounds with a hit. Of some 83,000 tested, about 20% had one in any assay.
Measurement Type: growth (%)

> print(dat)
                                      smiles        target  quantitative.readout
 1  CC1(C)N=C(N)N=C(N)N1c1cccc(CCc2ccccc2)c1  T-47D breast                  37.7
 2  CC1(C)OB(O)c2cc(-c3nc4ccc5[nH]ncc5c4c4c3CCCC4)ccc21  T-47D breast                  34.9
 3  CC1=C2[C@@H](CC1)[C@]1(C)O[C@@](C3CCCCC3)(C[C@H]1OC(=O)CO)[C@H]2OC(=O)/C=C/c1ccccc1  T-47D breast                  46.1
 4  Cc1cccc(Oc2ccc(Nc3ncnc4ccc(NC(=O)CN5CCN(C)CC5)cc34)cc2Cl)c1  T-47D breast                  7.58
 5  COc1ccc2cc(-c3ccnc4c(N=Nc5ccc(Cl)cc5)c(N)nn34)ccc2c1  T-47D breast                  94.5
 6  Cc1ccc(/C=C(\C#N)n2nnc3cc(F)c(F)cc32)cc1  T-47D breast                 -10.3
 7  O=[N+]([O-])c1ccc(-c2cn3nc(-c4c[nH]c5ccccc45)sc3n2)cc1  T-47D breast                  64.8
 8  Nc1[nH]c(=S)nc2oc(-c3ccccc3)c(-c3ccccc3)c12  T-47D breast                  96.8
 9  c1nc2ccc(-c3cc4ccc5[nH]ncc5c4c4c3CCCC4)cc2[nH]1  T-47D breast                  60.3
10    COc1cc(Cl)c(C)cc1NC(=O)c1cc2ccccc2cc1O  T-47D breast                  11.5
11  CN(C)S(=O)(=O)Oc1ccc(-c2sc3cc(OS(=O)(=O)N(C)C)ccc3c2C(=O)c2ccc(OCCN3CCCCC3)cc2)cc1  T-47D breast                  44.8
12  CCN(CC)CCN1C(=O)c2cccc3c(/C=C/CN4C(=O)c5cccc6cccc(c56)C4=O)ccc(c23)C1=O  T-47D breast                  94.8
13  CCOC(=O)c1c(C)nc2c(c1N)/C(=C/c1ccc(OC)cc1)C(=O)N2Cc1ccccc1  T-47D breast                  40.7
14                  Cc1n[nH]c2ccc(Br)cc2c1=O  T-47D breast                  94.6
15  C#CCO[C@H]1CC(CC#C)(CC#C)C(=O)[C@@H]2[C@H]1[C@H]1C[C@@H]3[C@@]4(C)CCC[C@@](C)(C(=O)OC)[C@@H]4CC[C@@]23C=C1C(C)C  T-47D breast                    84
16  COc1ccc(N2CCN(C(=O)c3sc4nc(C)c(Br)c(C)c4c3N)CC2)cc1  T-47D breast                    79
17  CCOC(=O)C#Cc1c(C(=O)OCC)nnn1Cc1ccc(C(F)(F)F)cc1  T-47D breast                  31.8
18  CCn1c(-c2cc3c([nH]c4ccccc43)c(-c3cccc(O)c3)n2)n[nH]c1=S  T-47D breast                  11.7
19      Fc1ccc(Cn2cc(CSc3nc4ccccc4o3)nn2)cc1  T-47D breast                  85.3

###

Test system: U251 CNS
Assay: NCI-60 one-dose screen, 48 h (100 = growth as untreated, 0 = no growth, -100 = all killed)
Conditions: 10 µM unless noted
This is part of a sample that, as a whole, favours compounds with a hit. Of some 83,000 tested, about 20% had one in any assay.
Parameter threshold = 90%. Response is MET when growth meets or exceeds it, else NOT MET.

> print(dat)
                                     smiles  class.label
1  C#CCO[C@H]1CC(CC#C)(CC#C)C(=O)[C@@H]2[C@H]1[C@H]1C[C@@H]3[C@@]4(C)CCC[C@@](C)(C(=O)OC)[C@@H]4CC[C@@]23C=C1C(C)C          MET
2  Cc1nc2c(=O)nc3s/c(=C\c4ccco4)c(=O)n3c2nc1C          MET
3  O=C(c1c[nH]c2ccccc12)c1n[nH]c(=S)n1-c1cccc(Br)c1          MET
4  O=c1nc(-c2ccccc2)c2cc(-c3ccc(C(F)(F)F)nc3)ccc2[nH]1          MET
5  O=C(N/N=C/c1cc(Cl)ccc1O)c1ccccc1Nc1ccnc(C(F)(F)F)c1      NOT MET
6  CC/C=C\CCC/C=C1/C(=O)C=C[C@@H]1C/C=C\CCCC(=O)OC      NOT MET
7  O=c1c2c3c(sc2n2c(-c4cc(-c5ccccc5)no4)nnc2n1Cc1ccccc1)CCCC3          MET
8  CCN1CCN(c2cc(C)nc(N(CCNc3ccnc4cc(Cl)ccc34)Cc3ccc4c(c3)OCO4)n2)CC1      NOT MET
9  CN1CCN(Cc2ccc(NC(=O)c3cncc(C#Cc4cnc5ccc(Cl)nn45)c3)cc2C(F)(F)F)CC1      NOT MET

###

Test system: KM12 colon
Test: NCI-60 one-dose screen, 48 h (100 = growth as untreated, 0 = no growth, -100 = all killed)
Settings: 10 µM unless noted
The panel holds about 83,000 compounds, 20% with a hit somewhere; the sample as a whole holds those more often.
Measurement Type: growth (%)

> print(dat)
                                   compound  units.text  quantitative.readout
1  CNC1=C([N+](=O)[O-])C(c2ccc(OC)cc2)C(C#N)=C(c2cccs2)O1 (stereo not given)           %                   103
2  CC1(C)C(N)=Nc2cc(OCCCN3Cc4ccccc4C3)c(OCC3CC3)cc21           %                  84.2
3  CCOC(=O)c1c(C)nc2c(c1N)CC(=O)N2Cc1ccc(OC)cc1           %                    58
4  CSC1=Nc2c(c(C)c(-c3ccccc3)n2CCCC(=O)O)C2=NC(=O)C[C@H](C)N12           %                  97.1
5  C=CCn1c(SCC(=O)Nc2ccc(/C(C)=N/O)cc2)nnc1-c1cc(-c2ccc(S(N)(=O)=O)cc2)nc2ccccc12           %                  86.5

###

System: MOLT-4 leukemia
Assay: NCI-60 one-dose screen, 48 h (100 = growth as untreated, 0 = no growth, -100 = all killed)
Conditions: 10 µM unless noted
The panel holds about 83,000 compounds, 20% with a hit somewhere; the sample as a whole holds those more often.
Output criterion met for records whose growth is lower than 30%, criterion not met for records at or above 30%.

> print(dat)
                                   compound        class.label
1  COC1=C(C)C(=O)N2[C@@H]1[C@H](c1ccccc1)OC21C=CC(=O)C=C1      criterion met
2  CC1(C)C(N)=Nc2cc(OCCCN3Cc4ccccc4C3)c(OCC3CC3)cc21  criterion not met
3  COc1ccc(Cn2cc3c(c2-c2ccccc2)CCc2cnoc2-3)cc1      criterion met
4  O=[N+]([O-])c1cc(NS(=O)(=O)c2ccccc2)ccc1NS(=O)(=O)c1ccccc1  criterion not met
5  COc1ccc(C2=CN3CC=CC3CC2=O)cc1 (centres undefined)  criterion not met
6  CCCCNC(=O)Oc1ccc(/C(=C(/C)Cc2ccc(OC)cc2)c2ccc(OCCN3CCCCCC3)cc2)cc1  criterion not met
7  Cc1nc2ccccc2c(/C=C/c2ccccc2)c1C(=O)/C=C/c1ccccc1      criterion met
8  CC[C@]12C=CCN3CC[C@@]4(c5ccc(OC)cc5N(C)[C@H]4[C@@](O)(C(=O)OC)[C@@H]1OC(=O)CCC[P+](c1ccccc1)(c1ccccc1)c1ccccc1)[C@@H]32      criterion met
9     C/C=C(/C)n1cnc2c(Nc3ccccn3)nc(Cl)nc21  criterion not met

###

Test system: UACC-62 melanoma
Test: NCI-60 one-dose screen, 48 h
Settings: 10 µM unless noted
Compounds without any hit were thinned out: in the full panel of roughly 83,000, 20% have a hit. Active and inactive are the calls of the source. How the source made its calls: active means growth percent below 10; inactive means the rest.
Labels: active, inactive

> print(dat)
                                    compound  class.label
 1  C/C(=N\O)c1ccc(NC(=O)CSc2nnc(-c3cc(-c4ccc(S(C)(=O)=O)cc4)nc4ccccc34)n2-c2ccccc2)cc1     inactive
 2  COc1ccc(N2CCN(C(=O)c3sc4nc(C)c(Br)c(C)c4c3N)CC2)cc1     inactive
 3  O=C1Nc2ccccc2C1(c1c[nH]c2ccccc12)c1c[nH]c2ccccc12     inactive
 4       c1ccc2c(c1)CCCc1nnc3nc4ccccc4n3c1-2     inactive
 5  CCS/C(Nc1ccccc1)=C(\C#N)C(=O)Nc1ccc(OC)cc1     inactive
 6  CCN(CC)CCN1C(=O)c2c(c(C)c3c(oc4ccc(O)cc43)c2C)C1=O     inactive
 7  Cn1c2c(c3ccc(Cl)c(Cl)c31)C(C#N)C(C)(C)NC2=O (stereo unspecified)     inactive
 8  CC1(C)CC2=C3C=C[C@@H]4[C@@]5(C)CCC(=O)C(C)(C)[C@@H]5CC[C@@]4(C)[C@]3(C)CC[C@@]2(C(=O)O)C[C@H]1O     inactive
 9  N#Cc1c(-c2ccccc2)nc(SCC(O)CN2CCOCC2)nc1N1CCOCC1 (stereo unspecified)     inactive
10  COc1cccc(/C=C/C(=O)c2cccc(Nc3nc(Nc4ccccc4)nc(Nc4ccccc4)n3)c2)c1     inactive
11    Cc1ccc(S(=O)(=O)N2CCC(=O)c3ccccc32)cc1     inactive
12  Cc1ccnc(Nc2ccc([N+](=O)[O-])c(NCCN3CCOCC3)n2)c1     inactive
13  CCC1S/C(=N\N=C(\C)c2cc3cc(Cl)ccc3o2)N(c2ccccc2)C1=O (stereo unspecified)     inactive
14  O=C1/C=C/[C@@H](O)[C@@H]2C[C@@H](O)C[C@H]2/C=C/CCC[C@H](CCO)O1     inactive
15  CC1(C)CC(=O)c2c(nn(-c3ccc(Br)cc3)c2-c2cn(-c3ccccc3)nc2-c2cccnc2)C1     inactive
16  COc1cc(OC)cc(-c2ccc(-c3ccc(C(=N)N)o3)o2)c1       active
17         Cc1ccc(CNc2c3ccccc3nc3ccccc23)cc1     inactive
18  CCOc1cccc(/C=N/NC(=O)c2cccc(Nc3ccnc(C(F)(F)F)c3)c2)c1O       active
19               CSC(SC)=C(C#N)c1nc2ccccc2s1       active
20  CCNC(=O)Oc1ccc(/C(=C(/CC)Cc2ccccc2)c2ccc(OCCN3CCCC3)cc2)cc1     inactive
21  O=C(CSc1nc(-c2ccccc2)cc(=O)[nH]1)Nc1nc(-c2ccccc2)cs1     inactive
